Test: Absorption and emission properties of HBR-binding PYP variants in presence of HBR
Format: physicochemical
Conditions: variant with HBR
This listing pairs molecules with measured Relative brightness (% of EGFP).

Here are 4 molecules together with their reported answers.
Clone 3: best fluorescent HBR-binding PYP variant, SEQ ID NO: 3, residues 94-101 WMIPTSRG (protein, Functional derivative of SEQ ID NO: 48 - Clone 3) MEHVAFGSEDIENTLAKMDDGQLDGLAFGAIQLDGDGNILQYNAAEGDITGRDPKQVIGKNFFKDVAPGTDSPEFYGKFKEGVASGNLNTMFEWMIPTSRGPTKVKVHMKKALSGDSYWVFVKRV    12 % of EGFP
Clone 2: fluorescent HBR-binding PYP variant, SEQ ID NO: 2, residues 94-101 WLIPTLPQ (protein, Functional derivative of SEQ ID NO: 48 - Clone 2) MEHVAFGSEDIENTLAKMDDGQLDGLAFGAIQLDGDGNILQYNAAEGDITGRDPKQVIGKNFFKDVAPGTDSPEFYGKFKEGVASGNLNTMFEWLIPTLPQPTKVKVHMKKALSGDSYWVFVKRV    8.3 % of EGFP
Clone 4: fluorescent HBR-binding PYP variant, SEQ ID NO: 4, residues 94-101 WDIPTNPE (protein, Functional derivative of SEQ ID NO: 48 - Clone 4) MEHVAFGSEDIENTLAKMDDGQLDGLAFGAIQLDGDGNILQYNAAEGDITGRDPKQVIGKNFFKDVAPGTDSPEFYGKFKEGVASGNLNTMFEWDIPTNPEPTKVKVHMKKALSGDSYWVFVKRV    7.4 % of EGFP
Clone 5: fluorescent HBR-binding PYP variant, SEQ ID NO: 5, residues 94-101 WRIPTECA (protein, Functional derivative of SEQ ID NO: 48 - Clone 5) MEHVAFGSEDIENTLAKMDDGQLDGLAFGAIQLDGDGNILQYNAAEGDITGRDPKQVIGKNFFKDVAPGTDSPEFYGKFKEGVASGNLNTMFEWRIPTECAPTKVKVHMKKALSGDSYWVFVKRV    8.3 % of EGFP

Now turn to the next molecule.
Name the reported Relative brightness (% of EGFP) value associated with the molecule Clone 6: fluorescent HBR-binding PYP variant, SEQ ID NO: 6, residues 94-101 WLIPTRNA (protein, Functional derivative of SEQ ID NO: 48 - Clone 6) MEHVAFGSEDIENTLAKMDDGQLDGLAFGAIQLDGDGNILQYNAAEGDITGRDPKQVIGKNFFKDVAPGTDSPEFYGKFKEGVASGNLNTMFEWLIPTRNAPTKVKVHMKKALSGDSYWVFVKRV
9.0 % of EGFP

The measured values listed here are drawn from patent US20170137473A1.
